- MEASUREMENT TARGET: Luciferin 4-monooxygenase (Photinus pyralis)
- ASSAY TEXT: Firefly luciferase inhibition profiling of diverse chemical library using quantitative high-throughput screening; note: nearly all actives have a fitted effect of over 65% in size
- EXPERIMENTAL CONDITIONS: purified P. pyralis luciferase, luminescence, biochemical; series mostly up to 115 µM
In all, about 76,000 compounds went through this assay and about 1,900 (2.5%) were called active. Not shown: some 5% with an inconclusive outcome. Calls come from the whole dose curve; as a rule, active = well fitted inhibition curve with a large enough effect; inconclusive = small, poorly fitted or top-dose-only effect; inactive = flat fitted curve, though single readings scatter. Only a selection was taken, and actives are over-represented in it overall.
Hi! Could you answer with just one of these? label 1 for active, label 0 for inactive

Solved cases below.
What did the test return for Cc1ccc(C(=O)Nc2ccc(C(O)[C@H]3COCC(=O)N3Cc3ccccc3F)cc2)cc1 (stereo not given in full) ?
label 1

What did the test return for O=C(Nc1ccc([C@@H](O)[C@H]2COCC(=O)N2Cc2ccccc2F)cc1)c1ccccc1 ?
label 0

What did the test return for CCC(C)(C)NC(=O)c1cccc2c1CCN2C(=O)Nc1ccc(C)cc1 ?
label 1

What did the test return for CCOC(=O)C1CCN(C(=O)c2cccc3c2CCN3C(=O)Nc2ccccc2)CC1 ?
label 1

# ---- query compound ----
What did the test return for Cc1cccc(S(=O)(=O)N2CCc3c(C(=O)NC(C)C)cccc32)c1 ?
label 0
